assay: Cytotoxicity against human HL60 cells assessed as reduction in cell viability measured after 72 hrs by MTT assay; format: functional, cell-based; conditions: HL-60, 72 h
Mark each entry Criterion met if its IC50 sits below 90 nM, and Criterion not met for all others.

Below, 8 compounds whose answers are already recorded.
CCCc1sc2ccccc2c1C(=O)c1ccc(OC)cc1 = Criterion met
CCCCc1nc2ccccc2n1C(=O)c1ccc(OC)cc1 = Criterion met
CCCc1sc2ccccc2c1C(=O)c1cccc2ccccc12 = Criterion not met
CCCc1nc2ccccc2n1C(=O)c1cccc2ccccc12 = Criterion not met
COc1ccc(-c2nc3ccccc3n2C(=O)c2cccc3ccccc23)cc1 = Criterion not met
CCCCc1nc2ccccc2n1C(=O)c1cccc2ccccc12 = Criterion not met
CC(C)Cc1nc2ccccc2n1C(=O)c1cccc2ccccc12 = Criterion not met
COc1ccc(C(=O)n2c(C3CCCC3)nc3ccccc32)cc1 = Criterion met

query: Is 90 nM strictly greater than the compound's reported IC50? compound: Cc1nc2ccccc2n1C(=O)c1cccc2ccccc12
result: Criterion not met

query: Hello, is IC50 of the following compound strictly smaller than 90 nM? CCc1sc2ccccc2c1C(=O)c1cccc2ccccc12
result: Criterion not met

query: Lab note: IC50 threshold 90 nM. Does this compound come in strictly under it? CC(C)Cc1sc2ccccc2c1C(=O)c1cccc2ccccc12
result: Criterion met

query: Does the reported IC50 of the following compound sit strictly below 90 nM? CCCCCc1sc2ccccc2c1C(=O)c1ccc(OC)cc1
result: Criterion met

query: Hello, is IC50 of the following compound strictly smaller than 90 nM? COc1ccc(C(=O)c2c(CC(C)C)sc3ccccc23)cc1
result: Criterion met

query: hey, is IC50 for COc1ccc(C(=O)c2c(-c3ccc(OC)cc3)sc3ccccc23)cc1 lower than 90 nM or not?
result: Criterion met

query: Please check: IC50 for CCCc1nc2ccccc2n1C(=O)c1ccc(OC)cc1 , strictly under 90 nM or not?
result: Criterion not met
